B1: Peroxisome proliferator-activated receptor gamma coactivator 1-alpha (Homo sapiens), Q9UBK2 (parent)
chain: MAWDMCNQDSESVWSDIECAALVGEDQPLCPDLPELDLSELDVNDLDTDSFLGGLKWCSDQSEIISNQYNNEPSNIFEKIDEENEANLLAVLTETLDSLPVDEDGLPSFDALTDGDVTTDNEASPSSMPDGTPPPQEAEEPSLLKKLLLAPANTQLSYNECSGLSTQNHANHNHRIRTNPAIVKTENSWSNKAKSICQQQKPQRRPCSELLKYLTTNDDPPHTKPTENRNSSRDKCTSKKKSHTQSQSQHLQAKPTTLSLPLTPESPNDPKGSPFENKTIERTLSVELSGTAGLTPPTTPPHKANQDNPFRASPKLKSSCKTVVPPPSKKPRYSESSGTQGNNSTKKGPEQSELYAQLSKSSVLTGGHEERKTKRPSLRLFGDHDYCQSINSKTEILINISQELQDSRQLENKDVSSDWQGQICSSTDSDQCYLRETLEASKQVSPCSTRKQLQDQEIRAELNKHFGHPSQAVFDDEADKTGELRDSDFSNEQFSKLPMFINSGLAMDGLFDDSEDESDKLSYPWDGTQSYSLFNVSPSCSSFNSPCRDSVSPPKSLFSQRPQRMRSRSRSFSRHRSCSRSPYSRSRSRSPGSRSSSRSCYYYESSHYRHRTHRNSPLYVRSRSRSPYSRRPRYDSYEEYQHERLKREEYRREYEKRESERAKQRERQRQKAIEERRVIYVGKIRPDTTRTELRDRFEVFGEIEECTVNLRDDGDSYGFITYRYTCDAFAALENGYTLRRSNETDFELYFCGRKQFFKSNYADLDSNSDDFDPASTKSKYDSLDFDSLLKEAQRSLRR
partner: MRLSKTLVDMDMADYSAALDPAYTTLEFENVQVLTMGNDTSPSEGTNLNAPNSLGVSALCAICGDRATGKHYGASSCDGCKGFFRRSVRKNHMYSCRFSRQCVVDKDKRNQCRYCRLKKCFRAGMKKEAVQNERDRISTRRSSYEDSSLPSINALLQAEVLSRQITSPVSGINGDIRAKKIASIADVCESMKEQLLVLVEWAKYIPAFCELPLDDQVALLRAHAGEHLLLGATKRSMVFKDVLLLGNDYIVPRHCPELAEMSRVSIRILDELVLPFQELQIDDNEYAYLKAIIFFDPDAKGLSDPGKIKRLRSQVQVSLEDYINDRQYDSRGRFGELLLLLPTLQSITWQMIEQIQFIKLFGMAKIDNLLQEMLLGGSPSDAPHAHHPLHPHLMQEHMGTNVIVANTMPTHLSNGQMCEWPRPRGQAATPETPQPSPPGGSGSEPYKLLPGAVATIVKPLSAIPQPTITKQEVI

Variants of: B1
Conditions: with hnf4a_human HNF4A
endpointName: effect of a mutation on the interaction

Worked cases, effect of a mutation on the interaction given:
{"columns": ["mutationSpec", "effect of a mutation on the interaction"],
 "data": [
  ["L147A;L148A", "decreasing interaction"],
  ["V91A;L92A;L147A;L148A;Y213A;L214A", "disrupting interaction"],
  ["V91A;L92A;L147A;L148A", "decreasing interaction"],
  ["Y213A;L214A", "decreasing interaction"],
  ["V91A;L92A;Y213A;L214A", "decreasing interaction"]
]}

# context switch: different variant, same effect of a mutation on the interaction
Just so you know, measured effect of a mutation on the interaction for `L147A;L148A;Y213A;L214A` came out at disrupting interaction
